- assay_notes: Metabolic stability in human liver microsomes assessed as half life preincubated for 10 mins followed by NADPH regenerating system addition and measured after 2 hrs by LC-MS/MS analysis
- Format: ADME, Microsome
- settings: time 130 min
This listing pairs molecules with measured half-life.

{"compound_structure": "C[C@]12CC[C@H]3[C@@H](CCC4=CC(=O)CC[C@@]43C)[C@@H]1CC[C@@H]2O", "units_symbol": "min", "half-life": 11.1}
{"compound_structure": "Cc1cc(/C=C/C#N)cc(C)c1Oc1nc(Nc2ccc(C#N)c(F)c2)nc2c1COC2.Cl", "units_symbol": "min", "half-life": 11.3}

====

This listing pairs compounds with measured solubility.
- assay_notes: Aqueous solubility of compound at pH 7 at 0.1 to 10 mg
- Format: physicochemical
- settings: aqueous medium, dose 0.1-10 mg
reported_metric: solubility (µg/mL)

{"compound_structure": "Cc1cc(/C=C/C#N)cc(C)c1Oc1nc(Nc2ccc(C#N)c(F)c2)nc2c1COC2.Cl", "reported_metric": "solubility", "val": 149}
{"compound_structure": "Cc1cc(/C=C/C#N)cc(C)c1Oc1nc(Nc2ccc(C#N)c(F)c2)nc2c1COC2", "reported_metric": "solubility", "val": 12.3}

====

- assay_notes: Cytotoxicity against human MT4 cells assessed as reduction in cell viability measured after 5 days by MTT assay
- Type: toxicity, cell-based
- settings: time 5 day
This listing pairs compounds with measured CC50 at 120 h.

{"compound_structure": "Cc1cc(C#N)cc(C)c1Oc1nc(NC2CCN(c3ccc([N+](=O)[O-])cc3F)CC2)nc2ccsc12", "censoring_operator": "=", "CC50 at 120 h (µM)": 740}
{"compound_structure": "Cc1cc(/C=C/C#N)cc(C)c1Oc1nc(NC2CCN(c3ccc([N+](=O)[O-])cc3F)CC2)nc2sccc12", "censoring_operator": ">", "CC50 at 120 h (µM)": 229}
{"compound_structure": "Cc1cc(C#N)cc(C)c1Oc1nc(NC2CCN(c3c(F)cc(N)cc3F)CC2)nc2ccsc12", "censoring_operator": "=", "CC50 at 120 h (µM)": 5.45}
{"compound_structure": "Cc1cc(/C=C/C#N)cc(C)c1Oc1nc(NC2CCN(c3ccc(N)cc3F)CC2)nc2ccsc12", "censoring_operator": "=", "CC50 at 120 h (µM)": 23}
{"compound_structure": "Cc1cc(C#N)cc(C)c1Oc1nc(NC2CCN(c3ccc(N)cc3)CC2)nc2sccc12", "censoring_operator": "=", "CC50 at 120 h (µM)": 31}
{"compound_structure": "Cc1cc(C#N)cc(C)c1Oc1nc(NC2CCN(c3ccc([N+](=O)[O-])cc3F)CC2)nc2sccc12", "censoring_operator": "=", "CC50 at 120 h (µM)": 37.4}
{"compound_structure": "Cc1cc(C#N)cc(C)c1Oc1nc(NC2CCN(c3c(F)cc([N+](=O)[O-])cc3F)CC2)nc2ccsc12", "censoring_operator": "=", "CC50 at 120 h (µM)": 740}
{"compound_structure": "Cc1cc(/C=C/C#N)cc(C)c1Oc1nc(Nc2ccc(C#N)c(F)c2)nc2cc[nH]c12", "censoring_operator": "=", "CC50 at 120 h (µM)": 188}
{"compound_structure": "Cc1cc(/C=C/C#N)cc(C)c1Oc1nc(NC2CCN(c3c(F)cc(N)cc3F)CC2)nc2ccsc12", "censoring_operator": "=", "CC50 at 120 h (µM)": 7.88}
{"compound_structure": "Cc1cc(C#N)cc(C)c1Oc1nc(NC2CCN(c3c(F)cc([N+](=O)[O-])cc3F)CC2)nc2sccc12", "censoring_operator": ">", "CC50 at 120 h (µM)": 233}
{"compound_structure": "Cc1cc(/C=C/C#N)cc(C)c1Oc1nc(Nc2ccc(C#N)nc2)nc2cc[nH]c12", "censoring_operator": "=", "CC50 at 120 h (µM)": 7.94}
{"compound_structure": "Cc1cc(-c2ccc(C#N)cc2)cc(C)c1Oc1nc(Nc2ccc(C#N)c(F)c2)nc2ccsc12", "censoring_operator": "=", "CC50 at 120 h (µM)": 71.5}
{"compound_structure": "Cc1cc(-c2ccc(C#N)cc2)cc(C)c1Oc1nc(Nc2ccc(C#N)nc2)nc2sccc12", "censoring_operator": "=", "CC50 at 120 h (µM)": 181}
{"compound_structure": "Cc1cc(/C=C/C#N)cc(C)c1Oc1nc(NC2CCN(c3ccc([N+](=O)[O-])cc3F)CC2)nc2ccsc12", "censoring_operator": "=", "CC50 at 120 h (µM)": 14.2}
{"compound_structure": "N#C/C=C/c1cc(F)c(Oc2nc(Nc3ccc(C#N)c(F)c3)nc3cc[nH]c23)c(F)c1", "censoring_operator": "=", "CC50 at 120 h (µM)": 10.2}
{"compound_structure": "Cc1cc(C#N)cc(C)c1Oc1nc(NC2CCN(c3ccc(N)cc3F)CC2)nc2sccc12", "censoring_operator": "=", "CC50 at 120 h (µM)": 26.9}
{"compound_structure": "N#C/C=C/c1cc(F)c(Oc2nc(Nc3ccc(C#N)c(F)c3)nc3ccsc23)c(F)c1", "censoring_operator": "=", "CC50 at 120 h (µM)": 96}
{"compound_structure": "Cc1cc(/C=C/C#N)cc(C)c1Oc1nc(NC2CCN(c3ccc(NS(N)(=O)=O)cc3F)CC2)nc2ccsc12", "censoring_operator": "=", "CC50 at 120 h (µM)": 21.7}
